# credit: patent US20240400614A1

- Measured target: uPA (Homo sapiens, UniProt P00749)
- Assay protocol: FRET peptide cleavage efficiency with uPA
- Assay type: biochemical
- Condition description: t = 120 min; standard conditions (Table 8)
Square brackets hold non-standard residues; d marks the D form. Ends that are not written are not given here. Tyr(3-NO2) = N[C@@H](Cc1ccc(O)c([N+](=O)[O-])c1)C(=O)O; Nle = CCCC[C@H](N)C(=O)O; 2Abz = Nc1ccccc1C(=O)O
Would you kindly list % cleavage uPA t = 120 min for each of these substances?
Use % as the unit, but write only the number.

Per the record, RGRKSPY-Nle-LQG ([2Abz]RGRKSPY[Nle]LQG[Tyr(3-NO2)]-NH2) [LNK038] has % cleavage uPA t = 120 min of 0

Per the record, SGRVAPY-Nle-LQG ([2Abz]SGRVAPY[Nle]LQG[Tyr(3-NO2)]-NH2) [LNK043] has % cleavage uPA t = 120 min of 0

Per the record, RGRKPYMLQG ([2Abz]RGRKPYMLQG[Tyr(3-NO2)]-NH2) [LNK035] has % cleavage uPA t = 120 min of 0

Per the record, RGRKVANLVG ([2Abz]RGRKVANLVG[Tyr(3-NO2)]-NH2) [LNK031] has % cleavage uPA t = 120 min of 2

Per the record, SGRVYMLQG ([2Abz]SGRVYMLQG[Tyr(3-NO2)]-NH2) [LNK044] has % cleavage uPA t = 120 min of 0

Per the record, SGRVAPQPLVD (not fully specified (N-terminus, C-terminus)) [LNK046] has % cleavage uPA t = 120 min of 7

Per the record, RGRRVANLVG ([2Abz]RGRRVANLVG[Tyr(3-NO2)]-NH2) [LNK033] has % cleavage uPA t = 120 min of 3

Per the record, RGRRGP ([2Abz]RGRRGP[Tyr(3-NO2)]-NH2) [LNK048] has % cleavage uPA t = 120 min of 0

Per the record, RQRKVANLVG ([2Abz]RQRKVANLVG[Tyr(3-NO2)]-NH2) [LNK032] has % cleavage uPA t = 120 min of 0

* * *

- Measured target: matriptase (Homo sapiens, UniProt Q9Y5Y6)
- Construct: purchased R&D Systems 3946-SEB
- Sequence (Q9Y5Y6 615-855 limits assumed): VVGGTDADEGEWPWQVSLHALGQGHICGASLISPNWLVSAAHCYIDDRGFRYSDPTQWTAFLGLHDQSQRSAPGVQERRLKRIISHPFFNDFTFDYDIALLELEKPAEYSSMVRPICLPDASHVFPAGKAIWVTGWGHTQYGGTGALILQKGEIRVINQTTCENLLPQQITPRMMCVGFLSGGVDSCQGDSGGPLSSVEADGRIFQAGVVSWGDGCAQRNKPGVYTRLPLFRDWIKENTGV
- Assay protocol: FRET peptide cleavage efficiency with matriptase
- Assay type: biochemical
- Condition description: t = 60 min; 200 uM linker, 1 ug/ml protease, 37° C., buffer B pH 9.0
Square brackets hold non-standard residues; d marks the D form. Ends that are not written are not given here. Tyr(3-NO2) = N[C@@H](Cc1ccc(O)c([N+](=O)[O-])c1)C(=O)O; 2Abz = Nc1ccccc1C(=O)O
Would you kindly list % cleavage Matriptase t = 60 min for each of these sequences?
Use % as the unit, but write only the number.

For the sequence SGRVLRKAGPAGLVG ([2Abz]SGRVLRKAGPAGLVG[Tyr(3-NO2)]-NH2) [LNK013] , the measured % cleavage Matriptase t = 60 min on matriptase (Homo sapiens, UniProt Q9Y5Y6) was 94

For the sequence RQRRSPLGLAG ([2Abz]RQRRSPLGLAG[Tyr(3-NO2)]-NH2) [LNK010] , the measured % cleavage Matriptase t = 60 min on matriptase (Homo sapiens, UniProt Q9Y5Y6) was 94

For the sequence SSQYSSPG ([2Abz]SSQYSSPG[Tyr(3-NO2)]-NH2) [LNK069] , the measured % cleavage Matriptase t = 60 min on matriptase (Homo sapiens, UniProt Q9Y5Y6) was 0

For the sequence SQLYSSPG ([2Abz]SQLYSSPG[Tyr(3-NO2)]-NH2) [LNK068] , the measured % cleavage Matriptase t = 60 min on matriptase (Homo sapiens, UniProt Q9Y5Y6) was 0

For the sequence SGRPLGYFGKL ([2Abz]SGRPLGYFGKL[Tyr(3-NO2)]-NH2) [LNK056] , the measured % cleavage Matriptase t = 60 min on matriptase (Homo sapiens, UniProt Q9Y5Y6) was 0

For the sequence SGRVANPLGGSG ([2Abz]SGRVANPLGGSG[Tyr(3-NO2)]-NH2) [LNK053] , the measured % cleavage Matriptase t = 60 min on matriptase (Homo sapiens, UniProt Q9Y5Y6) was 11

For the sequence GSGSGSGS ([2Abz]GSGSGSGS[Tyr(3-NO2)]-NH2) [LNK064] , the measured % cleavage Matriptase t = 60 min on matriptase (Homo sapiens, UniProt Q9Y5Y6) was 0

For the sequence SGRVLPAGLVG ([2Abz]SGRVLPAGLVG[Tyr(3-NO2)]-NH2) [LNK007] , the measured % cleavage Matriptase t = 60 min on matriptase (Homo sapiens, UniProt Q9Y5Y6) was 79

For the sequence SPLGLAGS ([2Abz]SPLGLAGS[Tyr(3-NO2)]-NH2) [LNK030] , the measured % cleavage Matriptase t = 60 min on matriptase (Homo sapiens, UniProt Q9Y5Y6) was 0

* * *

Would you kindly list % cleavage MMP-2 t = 15 min for each of these substances?
- Measured target: MMP-2 (Homo sapiens)
- Construct: purchased SIGMA PF023
- Sequence (P08253 110-660): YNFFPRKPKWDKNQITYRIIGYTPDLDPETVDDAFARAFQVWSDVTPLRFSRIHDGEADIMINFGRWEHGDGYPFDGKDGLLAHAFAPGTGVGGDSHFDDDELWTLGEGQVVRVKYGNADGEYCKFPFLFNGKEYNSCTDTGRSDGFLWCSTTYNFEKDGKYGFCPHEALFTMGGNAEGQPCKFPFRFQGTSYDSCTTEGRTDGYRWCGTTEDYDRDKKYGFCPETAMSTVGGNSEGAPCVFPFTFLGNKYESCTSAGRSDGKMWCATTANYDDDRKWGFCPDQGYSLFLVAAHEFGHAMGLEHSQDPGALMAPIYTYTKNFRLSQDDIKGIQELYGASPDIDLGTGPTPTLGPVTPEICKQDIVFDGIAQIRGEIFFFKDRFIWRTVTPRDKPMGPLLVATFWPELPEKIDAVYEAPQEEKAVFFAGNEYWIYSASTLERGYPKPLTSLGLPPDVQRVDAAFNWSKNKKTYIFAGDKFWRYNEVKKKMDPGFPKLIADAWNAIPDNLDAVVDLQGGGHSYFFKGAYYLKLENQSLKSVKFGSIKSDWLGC
- Assay protocol: FRET peptide cleavage efficiency with MMP-2
- Format: biochemical
- Condition description: t = 15 min; 200 uM linker, 1 ug/ml protease, 37° C., buffer C pH 7.5
Square brackets hold non-standard residues; d marks the D form. Ends that are not written are not given here. Tyr(3-NO2) = N[C@@H](Cc1ccc(O)c([N+](=O)[O-])c1)C(=O)O; 2Abz = Nc1ccccc1C(=O)O

Per the record, RGRRAANLVRPLGYFGKL ([2Abz]RGRRAANLVRPLGYFGKL[Tyr(3-NO2)]-NH2) [LNK060] has % cleavage MMP-2 t = 15 min of 76%

Per the record, KWGKSAPLGLAG ([2Abz]KWGKSAPLGLAG[Tyr(3-NO2)]-NH2) [LNK026] has % cleavage MMP-2 t = 15 min of 69%

Per the record, SSQYSSPG ([2Abz]SSQYSSPG[Tyr(3-NO2)]-NH2) [LNK069] has % cleavage MMP-2 t = 15 min of 1%

Per the record, SGRVANYFGKL ([2Abz]SGRVANYFGKL[Tyr(3-NO2)]-NH2) [LNK054] has % cleavage MMP-2 t = 15 min of 78%

Per the record, RSSYRSL ([2Abz]RSSYRSL[Tyr(3-NO2)]-NH2) [LNK075] has % cleavage MMP-2 t = 15 min of 16%

Per the record, RQRRSVVGG ([2Abz]RQRRSVVGG[Tyr(3-NO2)]-NH2) [LNK029] has % cleavage MMP-2 t = 15 min of 0%

Per the record, SGRVLTLRKAPWGLLE ([2Abz]SGRVLTLRKAPWGLLE[Tyr(3-NO2)]-NH2) [LNK004] has % cleavage MMP-2 t = 15 min of 16%

Per the record, RGRRPLGLAG ([2Abz]RGRRPLGLAG[Tyr(3-NO2)]-NH2) [LNK049] has % cleavage MMP-2 t = 15 min of 89%

Per the record, HSSKLQL ([2Abz]HSSKLQL[Tyr(3-NO2)]-NH2) [LNK078] has % cleavage MMP-2 t = 15 min of 3%

Per the record, HSSKLQYFGKL ([2Abz]HSSKLQYFGKL[Tyr(3-NO2)]-NH2) [LNK061] has % cleavage MMP-2 t = 15 min of 23%

Per the record, RQRRSAAPLGLAG ([2Abz]RQRRSAAPLGLAG[Tyr(3-NO2)]-NH2) [LNK028] has % cleavage MMP-2 t = 15 min of 72%

Per the record, GSGSGSGS ([2Abz]GSGSGSGS[Tyr(3-NO2)]-NH2) [LNK064] has % cleavage MMP-2 t = 15 min of 0%

Per the record, RSSYYSL ([2Abz]RSSYYSL[Tyr(3-NO2)]-NH2) [LNK076] has % cleavage MMP-2 t = 15 min of 19%

Per the record, SGRVLGPLNLSG ([2Abz]SGRVLGPLNLSG[Tyr(3-NO2)]-NH2) [LNK008] has % cleavage MMP-2 t = 15 min of 71%

Per the record, RGRRVANPLGLAGSG ([2Abz]RGRRVANPLGLAGSG[Tyr(3-NO2)]-NH2) [LNK050] has % cleavage MMP-2 t = 15 min of 54%

Per the record, RGRRHSSKLQPLGYFGKL ([2Abz]RGRRHSSKLQPLGYFGKL[Tyr(3-NO2)]-NH2) [LNK062] has % cleavage MMP-2 t = 15 min of 71%

Per the record, SSRVFRKPANLAG ([2Abz]SSRVFRKPANLAG[Tyr(3-NO2)]-NH2) [LNK019] has % cleavage MMP-2 t = 15 min of 84%

Per the record, SGRHSSKLQPLGYFGKL ([2Abz]SGRHSSKLQPLGYFGKL[Tyr(3-NO2)]-NH2) [LNK063] has % cleavage MMP-2 t = 15 min of 82%

Per the record, RGRRHSSKLQ ([2Abz]RGRRHSSKLQ[Tyr(3-NO2)]-NH2) [LNK052] has % cleavage MMP-2 t = 15 min of 1%
